target: Ubiquitin carboxyl-terminal hydrolase 1 (Homo sapiens) (UniProt O94782); assay: Inhibitors of USP1/UAF1: Pilot qHTS (AID 504865); conditions: purified USP1/UAF1, Ub-rhodamine cleavage fluorescence; series mostly up to 114 µM; also: nearly all actives have a fitted effect of over 35% in size
Sequence (O94782 whole entry, looked up): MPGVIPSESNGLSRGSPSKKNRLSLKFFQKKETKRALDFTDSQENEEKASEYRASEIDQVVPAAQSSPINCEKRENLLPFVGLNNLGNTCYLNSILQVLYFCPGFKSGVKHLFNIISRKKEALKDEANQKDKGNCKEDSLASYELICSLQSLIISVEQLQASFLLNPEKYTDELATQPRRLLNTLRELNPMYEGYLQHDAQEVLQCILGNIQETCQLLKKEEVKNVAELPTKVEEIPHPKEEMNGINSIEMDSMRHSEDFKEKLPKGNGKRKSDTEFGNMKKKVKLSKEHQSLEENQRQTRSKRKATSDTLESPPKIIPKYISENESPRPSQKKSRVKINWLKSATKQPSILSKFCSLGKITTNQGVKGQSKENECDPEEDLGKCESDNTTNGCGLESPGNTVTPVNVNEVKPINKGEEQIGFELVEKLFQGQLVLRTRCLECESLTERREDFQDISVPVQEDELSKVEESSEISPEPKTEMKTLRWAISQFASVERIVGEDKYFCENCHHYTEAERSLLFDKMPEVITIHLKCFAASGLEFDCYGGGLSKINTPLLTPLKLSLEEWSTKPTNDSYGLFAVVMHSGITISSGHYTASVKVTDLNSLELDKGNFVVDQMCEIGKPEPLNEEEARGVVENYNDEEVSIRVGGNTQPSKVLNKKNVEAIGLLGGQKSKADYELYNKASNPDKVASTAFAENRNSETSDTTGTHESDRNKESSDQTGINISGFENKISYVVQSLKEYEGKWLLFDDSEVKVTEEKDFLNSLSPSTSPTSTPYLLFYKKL
Results filed as inconclusive are left out. Active and inactive are the calls of the source. Calls follow the shape of the dose curve; as a rule, active = well fitted inhibition curve with a large enough effect; inconclusive = small, poorly fitted or top-dose-only effect; inactive = flat fitted curve, though single readings scatter.
Choose one outcome from this list and give only that: active, inactive

Ask: Hi team, can someone confirm the assay call for `O=C(O)Cc1ccc(-c2ccccc2)cc1` ?
Reply: inactive

Ask: Hi team, can someone confirm the assay call for `c1cnc2c(c1)ccc1cccnc12` ?
Reply: inactive

Ask: Hi team, can someone confirm the assay call for O=C(O)CC1CCCc2ccccc2C1O (configuration not stated) ?
Reply: inactive

Ask: Hi team, can someone confirm the assay call for `CC(C)(C=O)Cc1cc(C(C)(C)C)c(O)c(C(C)(C)C)c1` ?
Reply: inactive

Ask: Hi team, can someone confirm the assay call for `O=C(O)c1ccccc1Nc1cccc(C(F)(F)F)c1` ?
Reply: inactive

Ask: Hi team, can someone confirm the assay call for `NO` ?
Reply: inactive

Ask: Hi team, can someone confirm the assay call for `CN1CCC[C@H]1c1cccnc1` ?
Reply: inactive

Ask: Hi team, can someone confirm the assay call for `CCCCCCCCCCCCCCCC(=O)OC(C)C` ?
Reply: inactive

Ask: Hi team, can someone confirm the assay call for C[N+]1(C)C2CC(OC(=O)[C@H](CO)c3ccccc3)CC1C1OC12 (some centres not stated) ?
Reply: inactive

Ask: Hi team, can someone confirm the assay call for CCCCCCCCCCCCCCCC(=O)NCC(COP(=O)([O-])OCC[N+](C)(C)C)OCC (configuration not stated) ?
Reply: active

Ask: Hi team, can someone confirm the assay call for `NC(=S)NCCC[C@H](N)C(=O)O` ?
Reply: inactive

Ask: Hi team, can someone confirm the assay call for `CC1(C)CCC=[N+]1[O-]` ?
Reply: inactive
